tested on: CP237; assay: qHTS profiling for inhibitors of Plasmodium falciparum proliferation (AID 504749); note: nearly all actives have a fitted effect of over 60% in size; conditions: P. falciparum in erythrocytes, SYBR Green DNA, 72 h; series mostly up to 12.8 µM
Records with an inconclusive call do not appear. The source made the active and inactive calls. Calls come from the whole dose curve; as a rule, active = well fitted inhibition curve with a large enough effect; inconclusive = small, poorly fitted or top-dose-only effect; inactive = flat fitted curve, though single readings scatter.
Thanks in advance; please answer with one of these: active, inactive

Below, 5 compounds whose answers are already recorded.
C[N+]1(C)CCC[C@@H](OC(=O)C(O)(c2ccccc2)c2ccccc2)C1    inactive
CO[C@H]1C[C@@H](O[C@@H]2[C@H](C)[C@H](O[C@@H]3O[C@@H](C)C[C@@H](N(C)C)[C@@H]3O)[C@H](C)C[C@]3(CO3)C(=O)[C@H](C)[C@H](O)[C@H](C)[C@H](C)OC(=O)[C@@H]2C)O[C@@H](C)[C@H]1O    inactive
COc1ccccc1OC[C@H](O)COC(N)=O    inactive
CCN(CC)CCC[C@H](C)Nc1c2ccc(Cl)cc2nc2ccc(OC)cc12    active
CN(N=O)C(=O)N[C@H]1[C@@H](O)[C@H](O)[C@H](CO)O[C@@H]1O    inactive

Input: What call does the record list for `CC(=O)OCC1=C(C(=O)O)N2C(=O)[C@@H](NC(=O)CSc3ccncc3)[C@@H]2SC1` ?
Output: inactive

Input: Same lookup for `CCn1cc(C(=O)O)c(=O)c2cc(F)c(N3CCN[C@@H](C)C3)c(F)c21` , please.
Output: inactive

Input: Same lookup for `Cc1cc(/C=C\c2ccc3cc(N(C)C)ccc3[n+]2C)c(C)n1-c1ccccc1` , please.
Output: active

###

experiment: qHTS Assay for Lipid Storage Modulators (AID 1519); details: Drosophila S3 cells, BODIPY lipid droplet/cell ratio, laser cytometry; measured here: lipid channel max response; cells loaded with oleic acid
Inconclusive results are not listed.
readout: max response
Reply with a number, then the unit it belongs to.

Please review the following examples before continuing.
O=C(c1csnn1)N1CCC[C@@]2(CCN(C(c3ccccc3)c3ccccc3)C2)C1    -20.5%
Cc1ccccc1-c1cncnc1NCCN1CCOCC1    3.28%
O=C(c1cnccn1)N1CCC2(CC1)CCN(c1ccncc1)CC2    8.09%
COCC(=O)N1CCC2(CC1)CN(c1ccccc1)C2    21.1%

Consider now this further molecule.
Input: Given CCCC1O[C@@H]2C[C@H]3[C@@H]4CCC5=CC(=O)C=C[C@]5(C)C4[C@@H](O)C[C@]3(C)[C@]2(C(=O)CO)O1 (some centres undefined) , state its recorded max response.
Output: -19.5%

###

experiment: AP1 Signaling Pathway (AID 357); conditions: ME-180 (cervical carcinoma) AP-1-bla reporter, EGF-induced, beta-lactamase ratio, 5 h; at 7.69 µM (top of the series) unless noted;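 note: ME-180 reporter cells stimulated with EGF at its EC50 level; % is set by controls: 0 for no effect and ±100 for the full control effect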
Records with an inconclusive call do not appear. The source made the active and inactive calls. The call rests on the fitted dose curve; in most records, active means well fitted curve in either direction with a large enough effect (not every such curve was filed as active); inconclusive means small, poorly fitted or top-dose-only effect, or another doubt; inactive means flat fitted curve, though single readings scatter.
Listed below: activity change, negative = inhibition values for each entry.

COCC(=O)N1CCC2(CCN(Cc3cc(C(F)(F)F)cc(C(F)(F)F)c3)CC2)CC1    4.92% (inactive)
CN(C)c1ccc(-c2nc(N(C)C)c3ccccc3n2)cc1    3.53% (inactive)

Consider now this further molecule.
Input: Given `Cc1ccccc1-c1cncnc1NCCN1CCOCC1` , state its recorded activity change, negative = inhibition.
Output: 24.4% (inactive)

###

target: Dual specificity protein kinase CLK4 (Homo sapiens); test: qHTS Assay for Inhibitors of CDC-like Kinase 4 (ADP-Glo Assay) (AID 1771); conditions: recombinant CLK4, ADP-Glo luminescence; series mostly up to 80 µM; note: % is set by controls: 0 for no effect and ±100 for the full control effect; nearly all actives have a fitted effect of over 70% in size
Results filed as inconclusive are left out. Activity calls are given as the source filed them. The call rests on the fitted dose curve; in most records, active means well fitted inhibition curve with a large enough effect; inconclusive means small, poorly fitted or top-dose-only effect; inactive means flat fitted curve, though single readings scatter.
Thanks in advance; please answer with one of these: class 1 for active, class 0 for inactive

COc1cccc(Cn2c(=O)c(-c3cn(C)c4ccccc34)nc3cnc(OC)nc32)c1    class 0

Input: What call does the record list for `CN1CCN(c2ncc3nc(-c4cccc(C#N)c4)c(=O)n(CCC#N)c3n2)CC1` ?
Output: class 0

Input: Same lookup for `CN(C)c1ncc2nc(-c3ccccc3)c(=O)n(Cc3cccs3)c2n1` , please.
Output: class 0

# credit: PubChem BioAssay (NCATS)
